Hi there, I'd appreciate the recorded normalised viability for every entry that follows.
Tested on: HCC1599
testName: normalised viability (% of control), CellTiter-Blue; higher = more viable cells (about 100 = DMSO control)
runParameters: 100 nM; incubation time: 72 h
Note: a bare number is incomplete; add the unit.

The following compounds have reported results that may help.
Memo: `COc1ncc(-c2ccc3nccc(-c4ccnnc4)c3c2)cc1NS(=O)(=O)c1ccc(F)cc1F` , reported normalised viability: 34.5%

Note to self: normalised viability recorded for `Cn1c(=O)c(F)c(Nc2ccc(I)cc2F)c2c(=O)n(C[C@@H](O)CO)cnc21` was 74.6%

GET /value?item= `COc1cccc2c1C(=O)c1c(O)c3c(c(O)c1C2=O)C[C@@](O)(C(C)=O)C[C@@H]3O[C@H]1C[C@H](N)[C@H](O)[C@H](C)O1` &field=normalised viability returns 98.8%

# evaluate next
Record summary for `Cn1cnc2c(F)c(Nc3ccc(Br)cc3F)c(C(=O)NOCCO)cc21` : reported normalised viability = 88.4%
